# TESTED_TARGET: recombinant CaM (petunia CaM81) (petunia, UniProt P62199 1-149)
# EXPERIMENT_SUMMARY: ITC
RESULT_TYPE: pKd
Scale explanation: pKd corresponds to minus log10 of a concentration expressed in moles per litre.

For the binder shown here, Ac-QHASATKIQGAFRGYMARKSFRALK-NH2 [IQD14-IQ1 synthetic peptide, residues 322-346] , give the reported pKd.
8.15
